- tgt: T1, human MSLN-FL-his protein (human, UniProt Q13421 296-580)
- T1 construct: Made in HEK293E cells, purified on nickel column; also called hMSLN-FL-his; human MSLN full-length protein; not shown: His tag
- test_summary: ELISA, coated antigen, antibody 0.2 nM
readout_label: OD450
Quick one: just the number, no unit, thanks!

// query So what's the measured OD450 for this one? S009-F7.69.8 chimeric antibody (antibody, human IgG1, kappa, V domains shown, Human-murine chimeric antibody, human IgG1/kappa constant regions) VH: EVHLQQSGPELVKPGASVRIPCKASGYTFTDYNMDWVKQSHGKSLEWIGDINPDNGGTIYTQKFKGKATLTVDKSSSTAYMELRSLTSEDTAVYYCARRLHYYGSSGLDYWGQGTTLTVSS VL: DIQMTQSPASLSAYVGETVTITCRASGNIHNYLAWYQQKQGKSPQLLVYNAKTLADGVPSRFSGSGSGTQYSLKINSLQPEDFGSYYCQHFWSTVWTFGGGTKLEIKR
// result 2.15

// query So what's the measured OD450 for this one? S009-F7.67.12 chimeric antibody (antibody, human IgG1, kappa, V domains shown, Human-murine chimeric antibody, human IgG1/kappa constant regions) VH: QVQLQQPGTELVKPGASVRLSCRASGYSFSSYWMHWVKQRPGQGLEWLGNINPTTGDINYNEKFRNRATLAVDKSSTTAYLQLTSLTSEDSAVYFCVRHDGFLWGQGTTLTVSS VL: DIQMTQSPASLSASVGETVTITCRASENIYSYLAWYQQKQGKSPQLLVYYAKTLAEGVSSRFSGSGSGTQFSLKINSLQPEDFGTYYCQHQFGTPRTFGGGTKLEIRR
// result 1.78

// query So what's the measured OD450 for this one? S009-F7.26.15 chimeric antibody (antibody, human IgG1, kappa, V domains shown, Human-murine chimeric antibody, human IgG1/kappa constant regions) VH: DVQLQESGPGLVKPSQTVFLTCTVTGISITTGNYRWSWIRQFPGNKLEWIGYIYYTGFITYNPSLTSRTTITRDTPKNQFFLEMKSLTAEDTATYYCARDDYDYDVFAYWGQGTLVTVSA VL: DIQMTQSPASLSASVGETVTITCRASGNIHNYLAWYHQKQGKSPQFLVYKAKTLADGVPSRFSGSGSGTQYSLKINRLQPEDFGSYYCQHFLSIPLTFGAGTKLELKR
// result 2.33

// query So what's the measured OD450 for this one? S009-F7.33.24 chimeric antibody (antibody, human IgG1, kappa, V domains shown, Human-murine chimeric antibody, human IgG1/kappa constant regions) VH: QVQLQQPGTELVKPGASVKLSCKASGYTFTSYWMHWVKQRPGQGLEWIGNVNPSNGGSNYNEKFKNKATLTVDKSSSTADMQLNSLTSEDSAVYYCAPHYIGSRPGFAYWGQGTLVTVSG VL: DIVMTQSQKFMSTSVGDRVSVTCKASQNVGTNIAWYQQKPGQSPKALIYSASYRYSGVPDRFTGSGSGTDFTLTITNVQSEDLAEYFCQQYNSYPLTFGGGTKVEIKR
// result 2.6

// query So what's the measured OD450 for this one? S009-F7.6.17 chimeric antibody (antibody, human IgG1, kappa, V domains shown, Human-murine chimeric antibody, human IgG1/kappa constant regions) VH: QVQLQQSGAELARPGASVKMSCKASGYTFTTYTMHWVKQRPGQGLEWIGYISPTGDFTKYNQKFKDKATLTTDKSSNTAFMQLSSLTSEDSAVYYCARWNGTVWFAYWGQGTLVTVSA VL: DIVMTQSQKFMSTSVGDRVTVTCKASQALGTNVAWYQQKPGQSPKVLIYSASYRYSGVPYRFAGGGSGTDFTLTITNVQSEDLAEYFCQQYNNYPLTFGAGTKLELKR
// result 2.4
